meta.source: the SangsterLogP compilation

Some molecules, each annotated with its measured logP.
readout name: logP

structure_as_smiles=COC(N)=O test_value=-0.64
structure_as_smiles=CCCCC(N)=O test_value=0.37
structure_as_smiles=OCCO test_value=-1.21
structure_as_smiles=OCCCCCCO test_value=-0.02

----------
- test summary: method code SF, from Zhang, Y. (2010). Determination and Correlation of 1-Octanol/Water Partition Coefficients for Six Quinolones from 293.15 K to 323.15 K. Chemical Research in Chinese Universities, 26(4)636-639.
readout name: logP

compound="CC1COc2c(N3CCN(C)CC3)c(F)cc3c(=O)c(C(=O)O)cn1c23 (stereo unspecified)" readout_name=logP test_value=-0.05
